Target: T1, VARC (cytoplasmic acidic terminal sequence domain of P. falciparum erythrocyte membrane protein-1, PfEMP1) (Plasmodium falciparum, UniProt Q8IAK2 2467-2757)
T1 construct: also called ATS; cytoplasmic domain of PfEMP1; source: E. coli BL21 (DE3) CodonPlus, purified (Ni-NTA, gel permeation chromatography on Superdex 75)
T1 sequence: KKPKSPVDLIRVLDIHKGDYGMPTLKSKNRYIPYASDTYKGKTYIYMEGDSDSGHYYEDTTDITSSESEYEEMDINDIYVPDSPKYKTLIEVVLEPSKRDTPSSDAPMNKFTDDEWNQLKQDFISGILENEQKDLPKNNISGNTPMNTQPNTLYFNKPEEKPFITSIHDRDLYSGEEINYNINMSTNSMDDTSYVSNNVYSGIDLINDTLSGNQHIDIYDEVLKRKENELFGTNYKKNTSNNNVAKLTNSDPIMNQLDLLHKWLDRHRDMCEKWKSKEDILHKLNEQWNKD
Assay: ITC; 0.7 mM K2A1 in the syringe, 0.07 mM VARC in the cell; 298 K; 10 mM sodium phosphate pH 6.9, 5 mM DTT, no additional salt; 40 injections of 1 μL; fitted to a sequential four site model, and to a simple hetero-association model (A + B <-> AB) in SEDPHAT for an apparent global Kd
Details: both partners purified
Assay Readout: Kd
Hi, when you answer, please include the unit after the number. Thanks!

QUERY: // returns reported Kd for input KHHSSKKHEGNDGEGEKKKKSKKHKDHDGEKKKSKKHKDNEDAESVKSKK (domain or fragment, also called truncated K2A; source: E. coli BL21 (DE3) CodonPlus, purified (Ni-NTA, gel permeation chromatography on Superdex 75); not shown: His6, C-terminal, kept)
RESULT: 32.1 µM
